# test: LD50, single subcutaneous injection, mortality observed for 21 days
# Assay type: in vivo, mouse
# conditionSet: mouse, in vivo, sc; Swiss-Webster mice, subcutaneous, 21 days observation
# Procedure: Six Swiss-Webster mice (Simonsen) each weighing about 25 grams, were injected subcutaneously with a solution of methyl 6α,9α-difluoro-11β-hydroxy-16α-methyl-3-oxo-17α-n-propionyloxyandrosta-1,4-diene 17β-thiocarboxylate in […] having a concentration of 10 ml/kg. The dosage was 25 mg/kg or about 0.625 mg/mouse. The mice were observed daily for mortality for 21 days.
observationType: LD50 at 504 h

Record CCC(=O)O[C@]1(C(=O)SC)[C@H](C)C[C@H]2[C@@H]3C[C@H](F)C4=CC(=O)C=C[C@]4(C)[C@@]3(F)[C@@H](O)C[C@@]21C . Reported LD50 at 504 h: > 25 mg/kg

Cited source: patent US4261986A
